Every entry's value here was drawn from PubChem BioAssay.

Experiment: changes in parasitized red cell lysis, either direction – P. falciparum Indochina, OD700, 3 h, PSAC antagonist project, primary screen (AID 1156)
Conditions: P. falciparum-infected erythrocytes, osmotic lysis, higher = more signal, called active from +8 up or from −8 down
rule met means recorded z-score is 1 or above; rule not met means it is below 1.

- molecule: "COc1ccc(CCNC(=O)[C@@H]2c3ccccc3C(=O)N(C3CCCCC3)[C@H]2c2ccc(CO)cc2)cc1"
  discrete_label: "rule met"
- molecule: "C=CCN1Cc2ccccc2[C@@H]2OC(c3ccc(OCCCO)cc3)=N[C@]2(CC=C)C1=O"
  discrete_label: "rule met"
- molecule: "Cc1ccc(C(C)CC(O)C2C=CC3C(=O)N(c4ccccc4)C(=O)C3N2Nc2ccccc2)o1 (configuration not stated)"
  discrete_label: "rule not met"
- molecule: "[N-]=[N+]=Nc1ccccc1[C@H]1OC(c2ccc(OCCCO)cc2)=N[C@@]1(Cc1ccccc1)C(=O)NCCN1CCOCC1"
  discrete_label: "rule met"
- molecule: "C=C[C@@H](OC)[C@H](OC(=O)Nc1ccc(OC)cc1)c1ccc(O)c(F)c1"
  discrete_label: "rule not met"
- molecule: "C=CC[C@]1(C(=O)N2CCCCC2)N=C(c2ccc(OCCCO)cc2)O[C@H]1c1ccccc1CN=[N+]=[N-]"
  discrete_label: "rule met"
- molecule: "Cc1ccc(NN2C(C(O)c3c(F)cccc3Cl)C=CC3C(=O)N(C4CCCCC4)C(=O)C32)cc1 (configuration not stated)"
  discrete_label: "rule met"
- molecule: "C=CC[C@@]1(C(=O)NCCCOC)N=C(c2ccc(OCCCO)cc2)O[C@@H]1c1ccccc1N=[N+]=[N-]"
  discrete_label: "rule met"
- molecule: "C=C(COC)/C(=C/C[C@H](OC(=O)c1ccncc1)c1ccc(CO)o1)c1cnc2ccccc2c1"
  discrete_label: "rule met"
- molecule: "COCCCNC(=O)[C@@H]1c2ccccc2C(=O)N(C(C)C)[C@H]1c1ccc(CO)cc1"
  discrete_label: "rule not met"
- molecule: "CCCCC(CC)C(O)C1C=CC2C(=O)N(C)C(=O)C2N1Nc1ccccc1 (configuration not stated)"
  discrete_label: "rule not met"
- molecule: "CCOC(=O)C1=C[C@@H](C(C)C)N(S(=O)(=O)c2ccc(C)cc2)[C@H]1c1ccc(C(F)(F)F)cc1"
  discrete_label: "rule not met"
- molecule: "CCCC#C[Si](O[C@H](CC)c1cn([C@H](C)c2ccccc2)nn1)(C(C)C)C(C)C"
  discrete_label: "rule not met"
- molecule: "Cc1ccccc1C(O)C1C=CC2C(=O)NC(=O)C2N1Nc1ccccn1 (configuration not stated)"
  discrete_label: "rule not met"
- molecule: "O=C1OCCC/C=C\\[C@H]2OC34C=CCN(c5ccc6ccccc6c5)C(=O)[C@H]3N(CCO)C(=O)[C@@H]4C12 (some centres not stated)"
  discrete_label: "rule not met"
- molecule: "COCCOC(=O)N1C(=O)[C@@]2(c3ccccc31)[C@H](C(=O)NC[C@H](O)c1ccccc1)[C@H]1C(=O)O[C@H](c3ccccc3)[C@H](c3ccccc3)N1[C@@H]2c1ccc(O)cc1"
  discrete_label: "rule not met"
- molecule: "CCOC(=O)C[C@H]1[C@H](OC(=O)Cc2ccc3c(c2)OCO3)[C@@H](NC(=O)C2CCCCC2)c2cc(OCCCO)ccc2N1C(=O)c1ccccc1"
  discrete_label: "rule not met"

====

System: XIP peptide (Xip251-270) binding
Assay: XIP fragment 251-270 binding compounds – biochemical, small-molecule microarray, fluorescence 635/667 nm, 0.1 µg/mL protein, primary screen (AID 1182)
Details: fluorescent protein binding, 635 nm, higher = more signal, called active from +8 up or from −8 down

- compound: "CCN(CC)c1ccc(N2CC=CC34O[C@@H]5/C=C\\CCCOC(=O)C5[C@H]3C(=O)N(C(C)CO)[C@@H]4C2=O)cc1 (stereo partly specified)"
  experimental_system: "XIP peptide (Xip251-270) binding"
  composite z-score: -0.322
- compound: "CO[C@H]1O[C@H](CO)[C@@H](OC(=O)Nc2ccc(Br)cc2)[C@@H]2OC(=O)[C@@H](Cc3ccccc3)C/C=C/C[C@H](Cc3ccccc3)C(=O)O[C@@H]12"
  experimental_system: "XIP peptide (Xip251-270) binding"
  composite z-score: 0.491
- compound: "CCCNC(=O)[C@@]1(Sc2ccc(C)cc2)CC(=O)N(C2Cc3ccccc3C2)[C@@H]1c1ccc(CO)cc1I"
  experimental_system: "XIP peptide (Xip251-270) binding"
  composite z-score: 0.0241
- compound: "COc1cc2c(cc1O)C(c1cccs1)N(Cc1cc3c(cc1Br)OCO3)CC2 (stereo unspecified)"
  experimental_system: "XIP peptide (Xip251-270) binding"
  composite z-score: -0.177
- compound: "O=C(NCCN1CCOCC1)[C@@H]1c2ccccc2C(=O)N(C2Cc3ccccc3C2)[C@H]1c1ccc(CO)cc1"
  experimental_system: "XIP peptide (Xip251-270) binding"
  composite z-score: 1.54
- compound: "[N-]=[N+]=Nc1ccccc1C[C@]1(C(=O)NCC(O)CO)COC(c2ccc(OCCCO)cc2)=N1 (stereo partly specified)"
  experimental_system: "XIP peptide (Xip251-270) binding"
  composite z-score: -0.0462
- compound: "COC(=O)C1=CC(CCCO)=CC(c2cccs2)N(Cc2cccc(OC(F)(F)F)c2)C=C1C(=O)OC (stereo unspecified)"
  experimental_system: "XIP peptide (Xip251-270) binding"
  composite z-score: 0.348
- compound: "O=C1NC(=O)C2C1C=CC(C(O)c1ccco1)N2Nc1ccc(Cl)cc1Cl (stereo unspecified)"
  experimental_system: "XIP peptide (Xip251-270) binding"
  composite z-score: -0.101
- compound: "CC(C)c1ccc(NN2C(C(O)c3ccc(F)cc3)C=CC3C(=O)N(c4ccccc4)C(=O)C32)cc1 (stereo unspecified)"
  experimental_system: "XIP peptide (Xip251-270) binding"
  composite z-score: 0.344
- compound: "CCCC=C(CCC)[C@@H](NS(=O)(=O)CC12CCC(CC1=O)C2(C)C)c1ccc(C(=O)OC)cc1 (stereo partly specified)"
  experimental_system: "XIP peptide (Xip251-270) binding"
  composite z-score: -0.341
- compound: "COc1ccc(C(=O)Nc2ccc(CN3C(=O)[C@]4(O[C@H](CC(=O)N5Cc6ccccc6C[C@H]5CO)[C@@H]([Si](C)(C)c5ccc(OC)cc5)[C@@H]4C)c4ccccc43)cc2)cc1"
  experimental_system: "XIP peptide (Xip251-270) binding"
  composite z-score: 1.22
- compound: "COc1cc2c(cc1O)C(C1CC1)N(C)CC2 (stereo unspecified)"
  experimental_system: "XIP peptide (Xip251-270) binding"
  composite z-score: -0.198
- compound: "CC1CC/C=C\\[C@H]2OC34C=CCN(C(C)(C)C)C(=O)[C@H]3N(CCCCCO)C(=O)[C@@H]4C2C(=O)O1 (stereo partly specified)"
  experimental_system: "XIP peptide (Xip251-270) binding"
  composite z-score: 0.28
- compound: "Cc1ccc(F)cc1S(=O)(=O)N[C@@H]1CCN(Cc2ccc(Br)cc2)C1"
  experimental_system: "XIP peptide (Xip251-270) binding"
  composite z-score: -0.238
- compound: "CCOC(=O)C1=CC[C@@H](c2ccccc2)N(S(=O)(=O)c2ccc(C)cc2)[C@H]1c1ccccc1"
  experimental_system: "XIP peptide (Xip251-270) binding"
  composite z-score: 0.267
- compound: "COCCCNC(=O)[C@@]1(CCC(=O)OC(C)(C)C)N=C(c2ccc(OCCCO)cc2)O[C@H]1c1ccccc1N=[N+]=[N-]"
  experimental_system: "XIP peptide (Xip251-270) binding"
  composite z-score: 3.51

====

Test system: XIP peptide (Xip251-270)
Assay: compounds binding XIP fragment 251-270 – biochemical, small-molecule microarray, fluorescence 635/667 nm, 0.5 µg/mL protein, primary screen (AID 1183)
Conditions: fluorescence 635 nm, higher = more signal

- structure_string: "C=CCOC(=O)[C@@]1(Cc2ccccc2)C[C@H]2CO[C@H](c3ccc(OC)cc3)N2C1=O"
  composite z-score: -0.0614
- structure_string: "O=c1cccc(-c2ccc([N+](=O)[O-])cc2)o1"
  composite z-score: -0.163
- structure_string: "C[N+](C)(C)CCCC[C@@H]1NC(=O)[C@@H]2C[C@H](C(=O)NCCCCCCN)[C@H](c3cccc(OCCO)c3)N2C1=O"
  composite z-score: 0.771
- structure_string: "COCCOC(=O)N1C(=O)[C@@]2(c3ccccc31)[C@H](c1ccc(O)cc1)N1[C@H](c3ccccc3)[C@H](c3ccccc3)OC(=O)[C@H]1[C@@H]2C(=O)N1CCN(c2ncccn2)CC1"
  composite z-score: 0.787

====

Assay: JC-1 mitochondrial signal, unstimulated MM1S myeloma – cell-based, JC-1 fluorescence, 24 h, 100 nL compound, profiling panel (AID 1170)
Conditions: MM1S mitochondrial potential, higher = more signal

- structure_string: "CCOC(=O)C[C@H]1[C@H](OC(=O)c2ccc(-c3ccccc3)cc2)[C@@H](NC(=O)CC(C)C)c2cc(OCCCO)ccc2N1C(=O)c1ccc2ccccc2n1"
  z-score: -0.411
- structure_string: "CC#CCO[Si](C#Cc1ccccc1)(C(C)C)C(C)C"
  z-score: -1.3
- structure_string: "Cc1ccc(S[C@]2(C(=O)NC(C)C)CC(=O)N(Cc3cc(C(F)(F)F)cc(C(F)(F)F)c3)[C@@H]2c2ccc(CO)cc2)cc1"
  z-score: -0.129
- structure_string: "CN(C)CCCCCCNC(=O)[C@@H]1C[C@@H]2C(=O)N3CCC[C@H]3C(=O)N2[C@@H]1c1cccc(OCCO)c1"
  z-score: 0.784
